- assayed.target: Human Calpain 2/NS1 (Homo sapiens)
- Sequence (P17655 whole entry): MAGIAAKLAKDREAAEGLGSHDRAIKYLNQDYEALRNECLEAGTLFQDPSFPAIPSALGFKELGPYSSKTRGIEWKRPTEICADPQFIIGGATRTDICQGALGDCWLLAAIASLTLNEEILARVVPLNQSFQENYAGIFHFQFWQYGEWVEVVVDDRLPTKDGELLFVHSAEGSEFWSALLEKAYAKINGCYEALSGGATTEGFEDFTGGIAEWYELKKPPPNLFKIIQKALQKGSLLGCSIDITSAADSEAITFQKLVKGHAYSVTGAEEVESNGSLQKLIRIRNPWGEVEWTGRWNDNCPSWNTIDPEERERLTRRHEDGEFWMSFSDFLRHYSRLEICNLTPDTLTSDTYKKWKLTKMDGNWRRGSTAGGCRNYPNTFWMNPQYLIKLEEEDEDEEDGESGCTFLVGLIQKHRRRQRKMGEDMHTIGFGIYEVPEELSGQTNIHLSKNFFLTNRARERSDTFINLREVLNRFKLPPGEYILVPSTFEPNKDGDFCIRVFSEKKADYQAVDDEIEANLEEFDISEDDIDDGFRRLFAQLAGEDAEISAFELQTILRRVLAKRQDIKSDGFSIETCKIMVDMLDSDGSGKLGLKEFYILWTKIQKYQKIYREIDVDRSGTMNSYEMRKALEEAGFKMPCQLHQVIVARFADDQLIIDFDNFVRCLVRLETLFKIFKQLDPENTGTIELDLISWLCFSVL
- Sequence (P04632 whole entry partner): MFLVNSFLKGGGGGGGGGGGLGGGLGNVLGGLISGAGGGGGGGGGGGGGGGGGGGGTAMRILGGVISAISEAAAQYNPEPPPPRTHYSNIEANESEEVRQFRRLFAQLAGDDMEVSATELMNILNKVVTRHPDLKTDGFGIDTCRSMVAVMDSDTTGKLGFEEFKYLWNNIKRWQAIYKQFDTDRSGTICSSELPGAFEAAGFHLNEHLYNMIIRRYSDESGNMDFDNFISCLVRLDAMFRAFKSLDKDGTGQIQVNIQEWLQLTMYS
- experimental.details: Biochemical inhibition of Calpain 2, continuous fluorescence (FRET) assay
- particulars: mean; class symbols; read-out: Human Calpain 2/NS1 IC50 (nM)_MEAN
Entries annotated with measured IC50

The cases that follow already have their IC50 on record.
1. CC(C)[C@H](NC(=O)OCc1ccccc1)C(=O)NC1CCCN(C)C(=O)C1=O (some centres unmarked): > 10000 nM
2. CC(C)[C@H](NC(=O)OCc1ccccc1)C(=O)NC1CCCNC(=O)C1=O (some centres unmarked): 3000 to 10000 nM
3. CC(C)[C@H](NC(=O)OCc1ccccc1)C(=O)NC1CCCCCCNC(=O)C1=O (some centres unmarked): < 3000 nM
4. CC(C)C[C@H](NC(=O)[C@@H](NC(=O)OCc1ccccc1)C(C)C)C(=O)NC1CCCNC(=O)C1=O (some centres unmarked): 3000 to 10000 nM
5. CC(C)[C@H](NC(=O)OCc1ccccc1)C(=O)NC1CCNC(=O)C1=O (some centres unmarked): > 10000 nM
6. CC(C)[C@H](NC(=O)OCc1ccccc1)C(=O)N[C@H]1CCCCCCCNC(=O)C1=O: < 3000 nM
7. O=C1NCCCCCC[C@H](NC(=O)c2ccccc2-c2ccccc2)C1=O: < 3000 nM

Q: Returns the measured IC50 for the input compound. Input: CC(C)[C@H](NS(=O)(=O)c1ccc(F)cc1)C(=O)NC1CCCNC(=O)C1=O (some centres unmarked)
Ans: > 10000 nM
